Answer each item with its documented IC50 (nM) against U-II Stimulation of Rat Aorta Phasic Contractions.
Molecular target: T1, U-II receptors (rat thoracic aorta tissue) (rat, UniProt P49684 1-386)
T1 sequence (looked up): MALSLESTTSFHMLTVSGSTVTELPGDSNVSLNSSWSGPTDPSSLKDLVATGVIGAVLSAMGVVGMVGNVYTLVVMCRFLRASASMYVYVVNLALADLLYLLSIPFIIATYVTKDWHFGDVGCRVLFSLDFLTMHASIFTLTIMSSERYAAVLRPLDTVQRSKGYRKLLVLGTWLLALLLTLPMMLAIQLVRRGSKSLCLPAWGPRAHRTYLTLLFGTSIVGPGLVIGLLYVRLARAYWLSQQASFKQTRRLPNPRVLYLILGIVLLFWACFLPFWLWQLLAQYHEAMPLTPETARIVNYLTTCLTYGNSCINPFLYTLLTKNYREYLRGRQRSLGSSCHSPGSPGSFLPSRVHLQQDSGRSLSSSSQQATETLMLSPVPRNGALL
Test: cell-based or functional assay
Bridge positions count the residues as written; N and C are the ends. Square brackets hold non-standard residues; d marks the D form. Ends that are not written are not given here. dDip = N[C@@H](C(=O)O)C(c1ccccc1)c1ccccc1; Phe(4-Cl) = N[C@@H](Cc1ccc(Cl)cc1)C(=O)O; Phe(4-F) = N[C@@H](Cc1ccc(F)cc1)C(=O)O; 3Pal = N[C@@H](Cc1cccnc1)C(=O)O; Tle = CC(C)(C)[C@H](N)C(=O)O; Nal = naphthylalanine
Output should be the measured figure followed by the unit it is expressed in.

[
  {
    "Binder": "[Phe(4-Cl)][dC][3Pal][dW]K[Tle]C[Nal]-NH2 (disulfide 2-7 (inferred)) [Cpa-D-Cys-Pal-D-Trp-Lys-Tie-Cys-Nal-NH2 (SEQ ID NO: 10)]",
    "Meas value": "10 nM"
  }
]

Look at each binder and report its IC50 (nM) against U-II Stimulation of Rat Aorta Phasic Contractions.
1. [Phe(4-F)][dC][3Pal][dW]KVC[Nal]-NH2 (disulfide 2-7 (inferred)) [4Fpa-D-Cys-Pal-D-Trp-Lys-Val-Cys-Nal-NH2 (SEQ ID NO: 7)]
2. XXYXKTCX (Cpa (p-chlorophenylalanine) at 1; D-Cys at 2; D-Trp at 4; Nal (naphthylalanine) at 8; C-terminal amide) [Cpa-D-Cys-Tyr-D-Trp-Lys-Thr-Cys-Nal-NH2 (SEQ ID NO: 9)]
3. [Phe(4-Cl)][dC][3Pal]WKTC[Phe(4-Cl)]-NH2 (disulfide 2-7 (inferred)) [Cpa-D-Cys-Pal-Trp-Lys-Thr-Cys-Cpa-NH2 (SEQ ID NO: 11)]
4. [Nal][dC]H[dW]KVC[dDip]-NH2 (disulfide 2-7 (inferred)) [Nal-D-Cys-His-D-Trp-Lys-Val-Cys-D-Dip-NH2 (SEQ ID NO: 6)]
5. [Phe(4-F)][dC][3Pal][dW]K[Tle]C[Nal]-NH2 (disulfide 2-7 (inferred)) [4Fpa-D-Cys-Pal-D-Trp-Lys-Tle-Cys-Nal-NH2 (SEQ ID NO: 8)]

OUTPUT:
1: 1090 nM; 2: 12 nM; 3: 2 nM; 4: 1800 nM; 5: 100 nM
